Biological target: human α1G T-type channels (Homo sapiens, UniProt O43497)
Construct: expressed in transfected cells; host or cells: HEK 293
Sequence (O43497 whole entry): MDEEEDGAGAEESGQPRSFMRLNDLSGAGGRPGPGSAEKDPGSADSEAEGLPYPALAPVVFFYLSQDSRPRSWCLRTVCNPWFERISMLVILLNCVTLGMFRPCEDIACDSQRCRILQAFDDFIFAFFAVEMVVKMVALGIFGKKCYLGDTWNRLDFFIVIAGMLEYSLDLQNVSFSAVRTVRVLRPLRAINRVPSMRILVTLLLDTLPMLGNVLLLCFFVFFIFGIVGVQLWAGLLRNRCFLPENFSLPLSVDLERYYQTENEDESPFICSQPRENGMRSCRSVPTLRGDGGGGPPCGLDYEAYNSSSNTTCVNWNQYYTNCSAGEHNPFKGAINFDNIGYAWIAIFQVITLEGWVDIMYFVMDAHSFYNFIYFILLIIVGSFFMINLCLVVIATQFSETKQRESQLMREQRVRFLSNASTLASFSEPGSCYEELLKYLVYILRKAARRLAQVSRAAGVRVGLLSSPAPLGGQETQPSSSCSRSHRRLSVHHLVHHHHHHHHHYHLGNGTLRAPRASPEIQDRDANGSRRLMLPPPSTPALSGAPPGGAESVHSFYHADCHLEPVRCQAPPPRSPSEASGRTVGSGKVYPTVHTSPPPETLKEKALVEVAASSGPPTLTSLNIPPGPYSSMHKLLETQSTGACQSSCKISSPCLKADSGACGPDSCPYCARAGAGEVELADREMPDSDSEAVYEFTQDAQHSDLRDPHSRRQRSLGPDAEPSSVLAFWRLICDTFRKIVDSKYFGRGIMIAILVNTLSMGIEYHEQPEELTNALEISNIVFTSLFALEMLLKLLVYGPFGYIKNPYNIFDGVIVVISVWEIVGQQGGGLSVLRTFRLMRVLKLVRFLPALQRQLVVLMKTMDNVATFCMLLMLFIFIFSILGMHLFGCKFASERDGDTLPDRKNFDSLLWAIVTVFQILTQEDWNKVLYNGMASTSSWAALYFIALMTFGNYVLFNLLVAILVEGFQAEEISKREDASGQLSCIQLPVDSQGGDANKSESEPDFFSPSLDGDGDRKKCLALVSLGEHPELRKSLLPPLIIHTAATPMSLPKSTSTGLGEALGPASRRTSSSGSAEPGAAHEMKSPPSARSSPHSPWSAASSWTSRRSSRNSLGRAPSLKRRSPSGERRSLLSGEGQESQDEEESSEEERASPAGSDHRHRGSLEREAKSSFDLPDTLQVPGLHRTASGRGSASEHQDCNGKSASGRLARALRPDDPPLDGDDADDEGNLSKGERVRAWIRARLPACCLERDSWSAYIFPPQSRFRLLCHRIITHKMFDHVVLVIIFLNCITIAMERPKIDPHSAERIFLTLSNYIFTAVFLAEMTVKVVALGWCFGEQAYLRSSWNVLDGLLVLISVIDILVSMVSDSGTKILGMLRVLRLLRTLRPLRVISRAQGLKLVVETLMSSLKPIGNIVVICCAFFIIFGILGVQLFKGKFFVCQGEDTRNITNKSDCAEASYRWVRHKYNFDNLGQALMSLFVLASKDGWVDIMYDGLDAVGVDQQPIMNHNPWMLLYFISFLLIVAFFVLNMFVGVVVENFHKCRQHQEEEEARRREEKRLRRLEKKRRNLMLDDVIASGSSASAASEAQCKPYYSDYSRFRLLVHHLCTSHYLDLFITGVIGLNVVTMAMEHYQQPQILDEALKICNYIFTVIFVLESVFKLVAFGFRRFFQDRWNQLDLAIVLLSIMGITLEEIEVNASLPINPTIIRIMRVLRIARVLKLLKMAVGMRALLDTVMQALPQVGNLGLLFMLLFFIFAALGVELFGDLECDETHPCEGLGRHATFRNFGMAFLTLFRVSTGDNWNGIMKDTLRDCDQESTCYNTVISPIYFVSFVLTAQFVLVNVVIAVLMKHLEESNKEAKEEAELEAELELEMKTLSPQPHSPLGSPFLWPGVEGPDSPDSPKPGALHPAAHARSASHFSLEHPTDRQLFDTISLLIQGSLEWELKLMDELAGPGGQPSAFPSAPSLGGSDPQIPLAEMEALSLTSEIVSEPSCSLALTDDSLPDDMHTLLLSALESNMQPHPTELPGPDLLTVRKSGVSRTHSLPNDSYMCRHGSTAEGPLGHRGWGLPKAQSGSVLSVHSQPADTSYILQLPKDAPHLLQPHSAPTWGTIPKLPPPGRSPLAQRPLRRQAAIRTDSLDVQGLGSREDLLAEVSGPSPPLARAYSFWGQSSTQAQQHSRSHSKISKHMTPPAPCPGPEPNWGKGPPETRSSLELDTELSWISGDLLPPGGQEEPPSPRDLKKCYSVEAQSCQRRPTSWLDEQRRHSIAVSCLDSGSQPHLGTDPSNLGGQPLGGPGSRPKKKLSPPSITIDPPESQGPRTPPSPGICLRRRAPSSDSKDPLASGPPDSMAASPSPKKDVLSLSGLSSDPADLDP
Assay: T-type calcium channel block, whole cell patch clamp in HEK cells (α1G)
Assay type: cell-based
Details: HEK cells, patch clamp, mainly non-inactivated protocol; values above 10 μM shown as 10 μM, below 0.30 μM shown as 0.30 μM; read-out: T-type Calcium Channel Block α1G IC50
Method: T-type calcium channel blocking activity was assayed in human embryonic kidney cells, HEK 293, stably transfected with the T-type calcium channel subunits. […] Standard patch-clamp techniques were employed to identify blockers of T-type currents. […] Data were analyzed using Clampfit (Axon Instruments) and SigmaPlot 4.0 (Jandel Scientific). […]
pIC50: −log10 of the molar value.
measure: pIC50

>>> assayvalue("CC(C)(C)OC(=O)NC(CN1CCC(CC(=O)NCCc2c[nH]c3ccccc23)CC1)C(C)(C)C (stereo not shown)")
"< 5.00"
>>> assayvalue("COc1cc(OC)cc(C(=O)NCC2CCN(CC(=O)NC(C)(C)C)CC2)c1")
"> 6.52"
>>> assayvalue("O=C(NCC1CCN(CCNS(=O)(=O)C(F)(F)F)CC1)c1cc(Br)cc(Br)c1")
"> 6.52"
>>> assayvalue("O=C(NCC1CCN(CCNS(=O)(=O)C2CC2)CC1)c1ccc(C(F)(F)F)c(F)c1")
6.00
>>> assayvalue("CC1CCCCC1NCC(=O)N1CCC(CNC(=O)c2cc(C(F)(F)F)cc(C(F)(F)F)c2)CC1 (stereo not shown)")
"> 6.52"
>>> assayvalue("CC(C)(C)OC(=O)NCCN1CCC(CNC(=O)c2ccccc2C(F)(F)F)CC1")
"< 5.00"
>>> assayvalue("CC(C)(C)NC(=O)CN1CCC(CNC(=O)c2cc(C(F)(F)F)ccn2)CC1")
"< 5.00"
>>> assayvalue("CC(C)(C)C(=O)NCCN1CCC(CNC(=O)c2cc(Br)cc(C(F)(F)F)c2)CC1")
"> 6.52"

I am curious: what pIC50 value has been reported for `Cc1cc(F)cc(C(=O)NCC2CCN(CC(=O)NC(C)(C)C(F)(F)F)CC2)c1` ? > 6.52

I am curious: what pIC50 value has been reported for `O=C(NCC1CCN(C(=O)CN2CCC(F)(F)C2)CC1)c1cc(C(F)(F)F)cc(C(F)(F)F)c1` ? < 5.00

###

biological target: human α1G T-type channels (Homo sapiens); construct: expressed in transfected cells; host or cells: HEK 293; experiment: T-type calcium channel block, whole cell patch clamp in HEK cells (α1G); assay type: cell-based; conditions: HEK cells, patch clamp, mainly non-inactivated protocol; values above 10 μM shown as 10 μM, below 0.30 μM shown as 0.30 μM; read-out: T-type Calcium Channel Block α1G IC50
pIC50: −log10 of the molar value.
measure: pIC50

Completed entries (count: 3):
>>> assayvalue("CC(C)(C)NC(=O)CN1CCC(CNC(=O)c2ccnc(N3CCCC3)c2)CC1 [Compound 373]")
"< 5.00"
>>> assayvalue("CC(C)(C)C(O)CN1CCC(CC(=O)NCc2ccc3c(c2)CCO3)CC1 (stereo not shown) [Compound 176]")
"< 5.00"
>>> assayvalue("COc1cc(C(=O)NCC2CCN(CCNS(=O)(=O)C3CC3)CC2)cc(C(F)(F)F)c1 [Compound 235]")
"> 6.52"

Now let's try a different one.
I am curious: what pIC50 value has been reported for CC(C(=O)N1CCC[C@H]1C(F)(F)F)N1CCC(CNC(=O)c2cc(F)cc(Cl)c2)CC1 (stereo partly shown) [Compound 548] ? > 6.52

###

target: hERG K+ channel (Homo sapiens); assay: hERG K+ Channel Block; format: cell-based
measure: IC50 (µM)
Numbers only here, please. The scale is µM.

>>> assayvalue("COc1cc(OC)cc(C(=O)NCC2CCN(CCNC(=O)C3(C(F)(F)F)CC3)CC2)c1 [Compound 500]")
5.5

# returns recorded IC50 (system: hERG K+ channel (Homo sapiens)) for O=C(NCC1CCN(CCNC(=O)C2(C(F)(F)F)CC2)CC1)c1cccc(Br)c1 [Compound 501] 5.6

# returns recorded IC50 (system: hERG K+ channel (Homo sapiens)) for Cc1cc(F)cc(C(=O)NCC2CCN(CCNC(=O)C(C)(C)C(F)(F)F)CC2)c1 [Compound 489] 8.8

# returns recorded IC50 (system: hERG K+ channel (Homo sapiens)) for CN(C(=O)CN1CCC(CNC(=O)c2cccc(Cl)c2)CC1)C(C)(C)C [Compound 543] 5.2

# returns recorded IC50 (system: hERG K+ channel (Homo sapiens)) for CC(C)NC(=O)CN1CCC(CNC(=O)c2cc(C(F)(F)F)cc(C(F)(F)F)c2)CC1 [Compound 344] 9.1

###

target: human α1H T-type channels (Homo sapiens); construct: expressed in transfected cells; host or cells: HEK 293; experiment: T-type calcium channel block, whole cell patch clamp in HEK cells (α1H); format: cell-based; conditions: HEK cells, patch clamp, mainly non-inactivated protocol; values above 10 μM shown as 10 μM; read-out: T-type Calcium Channel Block α1H IC50
Sequence (O95180 whole entry): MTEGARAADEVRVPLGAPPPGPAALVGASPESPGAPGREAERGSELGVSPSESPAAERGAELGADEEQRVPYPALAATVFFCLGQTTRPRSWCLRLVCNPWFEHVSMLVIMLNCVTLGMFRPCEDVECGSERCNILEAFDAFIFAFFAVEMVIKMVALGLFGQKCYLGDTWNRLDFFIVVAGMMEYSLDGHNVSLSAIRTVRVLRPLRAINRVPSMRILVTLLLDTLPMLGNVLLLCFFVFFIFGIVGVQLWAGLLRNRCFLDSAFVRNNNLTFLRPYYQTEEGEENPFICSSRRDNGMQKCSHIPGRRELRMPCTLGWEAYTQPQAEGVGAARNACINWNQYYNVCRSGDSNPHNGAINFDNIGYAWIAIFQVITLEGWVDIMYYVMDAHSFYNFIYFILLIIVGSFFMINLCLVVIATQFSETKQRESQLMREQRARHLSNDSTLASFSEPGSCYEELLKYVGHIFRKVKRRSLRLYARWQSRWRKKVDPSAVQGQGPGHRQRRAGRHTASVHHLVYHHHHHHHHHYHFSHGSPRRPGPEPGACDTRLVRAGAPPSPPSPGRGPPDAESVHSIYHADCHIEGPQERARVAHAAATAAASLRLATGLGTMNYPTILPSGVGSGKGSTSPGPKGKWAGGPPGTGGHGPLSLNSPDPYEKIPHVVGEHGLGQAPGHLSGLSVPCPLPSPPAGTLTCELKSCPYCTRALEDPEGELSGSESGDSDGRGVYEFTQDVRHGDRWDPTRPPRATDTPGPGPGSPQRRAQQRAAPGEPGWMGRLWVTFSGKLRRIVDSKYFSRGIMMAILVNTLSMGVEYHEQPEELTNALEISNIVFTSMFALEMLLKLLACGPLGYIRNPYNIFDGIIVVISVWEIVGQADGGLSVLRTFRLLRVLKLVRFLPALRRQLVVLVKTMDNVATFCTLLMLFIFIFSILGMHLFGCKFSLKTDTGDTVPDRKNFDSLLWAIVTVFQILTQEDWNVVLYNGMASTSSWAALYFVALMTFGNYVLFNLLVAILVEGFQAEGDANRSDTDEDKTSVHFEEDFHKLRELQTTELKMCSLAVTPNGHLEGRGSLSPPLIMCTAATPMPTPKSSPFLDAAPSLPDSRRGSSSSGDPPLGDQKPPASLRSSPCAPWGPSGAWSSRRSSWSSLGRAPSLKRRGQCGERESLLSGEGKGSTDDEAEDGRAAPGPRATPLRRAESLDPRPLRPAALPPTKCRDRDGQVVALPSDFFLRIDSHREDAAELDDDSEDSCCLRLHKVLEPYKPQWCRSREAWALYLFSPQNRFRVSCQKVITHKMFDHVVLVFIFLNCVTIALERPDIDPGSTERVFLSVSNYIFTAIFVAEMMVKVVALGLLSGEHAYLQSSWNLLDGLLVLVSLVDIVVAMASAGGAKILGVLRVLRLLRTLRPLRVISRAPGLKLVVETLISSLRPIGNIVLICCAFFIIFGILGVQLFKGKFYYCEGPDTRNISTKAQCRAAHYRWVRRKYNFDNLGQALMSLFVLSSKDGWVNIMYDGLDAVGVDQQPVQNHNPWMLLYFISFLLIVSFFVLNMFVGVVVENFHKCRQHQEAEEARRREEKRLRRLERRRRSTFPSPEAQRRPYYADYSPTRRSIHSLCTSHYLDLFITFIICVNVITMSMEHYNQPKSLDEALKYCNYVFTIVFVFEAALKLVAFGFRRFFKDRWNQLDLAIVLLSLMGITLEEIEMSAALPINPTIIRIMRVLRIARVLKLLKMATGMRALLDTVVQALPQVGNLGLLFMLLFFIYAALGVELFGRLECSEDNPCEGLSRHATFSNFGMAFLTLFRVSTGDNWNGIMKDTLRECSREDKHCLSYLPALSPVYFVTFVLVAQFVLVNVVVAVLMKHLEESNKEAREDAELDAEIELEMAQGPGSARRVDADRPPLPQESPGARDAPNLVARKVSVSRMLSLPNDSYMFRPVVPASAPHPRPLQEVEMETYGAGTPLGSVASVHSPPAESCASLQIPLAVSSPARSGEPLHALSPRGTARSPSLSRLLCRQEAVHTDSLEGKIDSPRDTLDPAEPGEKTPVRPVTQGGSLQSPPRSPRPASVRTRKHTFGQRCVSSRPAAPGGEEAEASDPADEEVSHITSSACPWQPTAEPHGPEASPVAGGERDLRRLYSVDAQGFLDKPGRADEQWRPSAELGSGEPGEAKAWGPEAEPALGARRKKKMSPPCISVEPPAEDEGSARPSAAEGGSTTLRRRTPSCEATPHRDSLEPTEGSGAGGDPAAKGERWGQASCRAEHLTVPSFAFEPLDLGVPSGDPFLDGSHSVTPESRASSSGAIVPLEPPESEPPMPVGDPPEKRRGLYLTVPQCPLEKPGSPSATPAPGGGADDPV
measure: pIC50
Lab note — pIC50 values are minus log10 of concentrations in M.

Completed entries (count: 4):
>>> assayvalue("O=C(NCC1CCN(CC(=O)N2CCC[C@H]2C(F)(F)F)CC1)c1cc(F)cc(Cl)c1")
7.15
>>> assayvalue("O=C(CN1CCC(CNC(=O)c2cccc(Cl)c2)CC1)NN1CCCCC1")
5.55
>>> assayvalue("CCCNC(=O)N(C)CCN1CCC(CNC(=O)c2cc(F)cc(C(F)(F)F)c2)CC1")
5.49
>>> assayvalue("CN(C(=O)CN1CCC(CNC(=O)c2cc(Cl)cc(Br)c2)CC1)C1(C)CCC1")
7.10

Now let's try a different one.
I am curious: what pIC50 value has been reported for `CC(C)(C(=O)NCCN1CCC(CNC(=O)c2cccc(C(F)(F)F)c2)CC1)C(F)(F)F` ? 7.05

###

target: human α1G T-type channels (Homo sapiens, UniProt O43497); construct: expressed in transfected cells; host or cells: HEK 293; test: T-type calcium channel block, whole cell patch clamp in HEK cells (α1G); type: cell-based; details: HEK cells, patch clamp, mainly non-inactivated protocol; values above 10 μM shown as 10 μM, below 0.30 μM shown as 0.30 μM; read-out: T-type Calcium Channel Block α1G IC50
pIC50: −log10 of the molar value.
measure: pIC50

Completed entries (count: 3):
>>> assayvalue("Cc1cc(C)cc(C(=O)NCC2CCN(CCNC(=O)C(C)(C)C)CC2)c1")
5.87
>>> assayvalue("O=C(NCC1CCN(CCNS(=O)(=O)C(F)(F)F)CC1)c1ccc(C(F)(F)F)c(F)c1")
5.99
>>> assayvalue("CC(C)(C)C(=O)NCCN1CCC(CNC(=O)c2cc(C(F)(F)F)ccn2)CC1")
"< 5.00"

I am curious: what pIC50 value has been reported for `CC(C)(C)c1ccc(C(=O)NCC2CCN(CCNS(=O)(=O)C3CC3)CC2)cc1` ? < 5.00

I am curious: what pIC50 value has been reported for `O=C(NCC1CCN(C(=O)CNC2CCCCC2)CC1)c1cc(C(F)(F)F)cc(C(F)(F)F)c1` ? > 6.52

I am curious: what pIC50 value has been reported for CCC1CCCN1CC(=O)N1CCC(CNC(=O)c2cc(F)cc(C(F)(F)F)c2)CC1 (centres unmarked) ? 5.01

I am curious: what pIC50 value has been reported for `O=C(NC1CCCCC1)OCCN1CCC(CNC(=O)c2cc(F)cc(C(F)(F)F)c2)CC1` ? 6.23

I am curious: what pIC50 value has been reported for Cc1ccc(-c2csc(NC(=O)CC3CCN(CC(O)C(C)(C)C)CC3)n2)cc1 (centres unmarked) ? 5.79

I am curious: what pIC50 value has been reported for `CC(C)(C)NC(=O)CN1CCC(CNC(=O)/C=C/c2cc(F)cc(F)c2)CC1` ? 5.16

I am curious: what pIC50 value has been reported for `CCCNC(=O)CN1CCC(CNC(=O)c2cccc(OC(F)(F)F)c2)CC1` ? 5.08

I am curious: what pIC50 value has been reported for `COCC(C)(C)NC(=O)CN1CCC(CNC(=O)c2cc(F)cc(Cl)c2)CC1` ? > 6.52

I am curious: what pIC50 value has been reported for `CN(C(=O)CN1CCC(CNC(=O)c2cc(F)cc(Cl)c2)CC1)C(C)(C)C(F)(F)F` ? > 6.52

I am curious: what pIC50 value has been reported for `O=C(NCC1CCN(C[C@@H]2CCCN2C(=O)CCC(F)(F)F)CC1)c1cc(F)cc(C(F)(F)F)c1` ? > 6.52

I am curious: what pIC50 value has been reported for `CN(CC1CCN(CCNC(=O)CC(C)(C)C)CC1)C(=O)c1cc(F)cc(C(F)(F)F)c1` ? < 5.00

I am curious: what pIC50 value has been reported for CC(C)(C)C(N)CN1CCC(CC(=O)NCc2cc(Cl)cc(Cl)c2)CC1 (centres unmarked) ? < 5.00

Reference source: patent US8569344B2
